Here the recorded activity, negative = inhibition is given for each entry.
test: Stat Signaling Pathway (AID 446); settings: ME-180 (cervical carcinoma) SIE beta-lactamase reporter, IL-6 stimulated, 5 h; at 7.69 µM (top of the series) unless noted;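 note: ME-180 cervical cancer cells given 40 pM IL-6 alongside compound; SIE-controlled beta-lactamase reporter measured as 460/530 nm FRET emission ratio; % is set by controls: 0 for no effect and ±100 for the full control effect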
Records with an inconclusive call do not appear.
# number only, unit % dropped from output

STRUCTURE_SMILES_STRING: O=c1c(-c2ccc(Cl)cc2)nc2cncnc2n1Cc1ccc(F)cc1
RESULT_NUMBER: -2.95
//
STRUCTURE_SMILES_STRING: COc1ccc(CNc2ncncc2-c2cccc(C#N)c2)c(OC)c1
RESULT_NUMBER: 8.97
//
STRUCTURE_SMILES_STRING: O=S(=O)(c1ccccc1)N1CCC2(CCCN(Cc3ccccc3)C2)CC1
RESULT_NUMBER: 5.57
//
STRUCTURE_SMILES_STRING: CNc1ncnc2ccc(-c3ccc4c(c3)OCO4)cc12
RESULT_NUMBER: 12.6
//
STRUCTURE_SMILES_STRING: CCNc1ncc2nc(-c3cccc(C#N)c3)c(=O)n(CCC#N)c2n1
RESULT_NUMBER: 14.1

O=C(Oc1ccccc1)N1CCC2(CC1)CN(c1ncccn1)C2 has a reported activity, negative = inhibition of -0.184

CC(=O)N1CCC[C@@]2(CCN(C(c3ccccc3)c3ccccc3)C2)C1 has a reported activity, negative = inhibition of -10.9

COc1ccccc1CNc1cc(-c2ccccc2C)ncn1 has a reported activity, negative = inhibition of 14.3

COc1ccc(CNc2nc(-c3ccc4c(c3)OCO4)nc3ccccc23)c(OC)c1 has a reported activity, negative = inhibition of 2.14

O=C(c1csnn1)N1CCC2(CCN(Cc3ccccc3)CC2)CC1 has a reported activity, negative = inhibition of -0.255

COc1ccc(-c2nc3cnc(Nc4ccccc4)nc3n(CCC#N)c2=O)cc1 has a reported activity, negative = inhibition of -4.64

N#Cc1cccc(-c2ccc3ncnc(NCc4ccccc4)c3c2)c1 has a reported activity, negative = inhibition of -18.2
